A collection of binders and their measured PBMC pSTAT3 IC50
system name: T1, interleukin-23 receptor (IL-23R), Q5VWK5
T1 chain: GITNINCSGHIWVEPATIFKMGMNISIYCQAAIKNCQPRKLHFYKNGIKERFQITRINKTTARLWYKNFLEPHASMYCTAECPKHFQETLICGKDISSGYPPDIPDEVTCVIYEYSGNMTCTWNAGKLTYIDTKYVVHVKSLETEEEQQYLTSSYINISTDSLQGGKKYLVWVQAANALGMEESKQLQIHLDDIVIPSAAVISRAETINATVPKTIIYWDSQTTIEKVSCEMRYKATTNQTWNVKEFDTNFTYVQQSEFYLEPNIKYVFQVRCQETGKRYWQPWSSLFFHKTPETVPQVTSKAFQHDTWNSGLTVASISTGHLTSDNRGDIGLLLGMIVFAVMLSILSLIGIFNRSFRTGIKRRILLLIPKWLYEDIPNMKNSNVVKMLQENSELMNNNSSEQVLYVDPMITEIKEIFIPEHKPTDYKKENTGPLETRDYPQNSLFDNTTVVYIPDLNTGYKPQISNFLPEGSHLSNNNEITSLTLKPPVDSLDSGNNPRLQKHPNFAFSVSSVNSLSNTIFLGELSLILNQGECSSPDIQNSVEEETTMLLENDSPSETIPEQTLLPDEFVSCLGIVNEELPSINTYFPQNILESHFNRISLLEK
protocol summary: cell-based or functional assay
Positions of bridges follow the written chain, without caps; N, C: chain ends. Non-standard residues stand in square brackets, D forms with d. No end group written: not given here. 2Nal(6-OH) = N[C@@H](Cc1ccc2cc(O)ccc2c1)C(=O)O; Trp(7-Me) = Cc1cccc2c(C[C@H](N)C(=O)O)c[nH]c12; AEF = NCCOc1ccc(C[C@H](N)C(=O)O)cc1; 3Pal = N[C@@H](Cc1cccnc1)C(=O)O; Pen = CC(C)(S)[C@H](N)C(=O)O; lipid = not defined here; Thp = NC1(C(=O)O)CCOCC1; Sar = CNCC(=O)O

Below, 2 binders whose answers are already recorded.
>>> observed("K[Pen]NT[Trp(7-Me)]K(Ac)[Pen][AEF][2Nal(6-OH)][Thp]K(Ac)N[3Pal][Sar] (disulfide 2-7 (inferred); ends not checked; also: K1: lipidated lysine, lipid not given here) [SEQ ID NO: 118]")
"< 1 nM"
>>> observed("R[Pen]NT[Trp(7-Me)]K(Ac)[Pen][N,N,N‑trimethylethanaminium][2‑amino‑3‑(6-hydroxynaphthalen-2-yl)propanoic acid][Thp]EN[3Pal][Sar] (disulfide 2-7 (inferred); not fully specified; ends not checked) [SEQ ID NO: 435]")
"< 0.1 nM"

Continue with the binder presented below.
Query: Answer with the recorded PBMC pSTAT3 IC50 of [Pen]NT[Trp(7-Me)]K(lipid)[Pen][5‑(4-(2-amino-2-carboxyethyl)phenoxy)‑N,N,N‑trimethylpentan‑1‑aminium][2‑amino‑3‑(6-hydroxynaphthalen-2-yl)propanoic acid][Thp]K(Ac)N[3Pal][Sar] (disulfide 1-6 (inferred); ends not checked; also: K5 lipidated lysine, lipid not given here) [SEQ ID NO: 183] only.
Reply: < 1 nM
